Target or system: T1, human glucagon receptor (GCGr) (Homo sapiens, UniProt P47871)
T1 construct: expressed in transfected cells; host or cells: HEK293s or CHO cells
T1 sequence (P47871 26-477): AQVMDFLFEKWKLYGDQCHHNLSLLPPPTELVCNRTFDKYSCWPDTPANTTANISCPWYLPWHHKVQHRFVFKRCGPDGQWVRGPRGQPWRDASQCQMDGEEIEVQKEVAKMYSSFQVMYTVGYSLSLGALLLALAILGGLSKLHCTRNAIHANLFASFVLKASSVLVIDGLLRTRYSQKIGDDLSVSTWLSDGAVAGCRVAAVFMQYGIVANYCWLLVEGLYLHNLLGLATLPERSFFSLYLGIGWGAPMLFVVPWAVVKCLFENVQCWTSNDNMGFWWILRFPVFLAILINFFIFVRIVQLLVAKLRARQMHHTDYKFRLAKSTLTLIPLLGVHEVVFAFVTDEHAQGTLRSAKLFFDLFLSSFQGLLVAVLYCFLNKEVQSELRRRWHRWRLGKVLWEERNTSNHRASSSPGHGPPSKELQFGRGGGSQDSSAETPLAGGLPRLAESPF
Experiment summary: BSA-cAMP assay, cells expressing human glucagon receptor
Format: cell-based
Run conditions: Batch 1, read-out: hGCGr cAMP activity EC50
Procedure: One basic cAMP assays was performed, differing in the medium used for the assay, the “BSA-cAMP assay”: BSA-based assay medium: 0.1% bovine serum albumin (BSA) in […] cAMP levels were measured using a commercially available cAMP dynamic 2 HTRF kit (Cisbio, Cat #62AM4PEJ), following the two step protocol as per manufacturer's recommendations. […]
Readout label: EC50

Known EC50 results, listed for orientation:
IP366 (protein) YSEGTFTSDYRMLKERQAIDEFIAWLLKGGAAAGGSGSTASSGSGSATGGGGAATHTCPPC
> 10.2 µM
IP376 (protein) YSEGTFTSLFSKLLERQAIDEFIAWLLKGGAAAGGSGSTASSGSGSATGGGGAATHTCPPC
> 7.43 µM

Bench note: what EC50 did IP309 (protein) YSEGTFISDVSSYLERQAIDEFIAWLLKGGAAAGGSGSTASSGSGSATGGGGAATHTCPPC show? 0.9 µM
